What normalized thallium flux (F/F0 slope) was measured for each of the following?
TGT: ATP-sensitive inward rectifier potassium channel 1 (Homo sapiens) (UniProt P48048)
Sequence (P48048 whole entry, looked up): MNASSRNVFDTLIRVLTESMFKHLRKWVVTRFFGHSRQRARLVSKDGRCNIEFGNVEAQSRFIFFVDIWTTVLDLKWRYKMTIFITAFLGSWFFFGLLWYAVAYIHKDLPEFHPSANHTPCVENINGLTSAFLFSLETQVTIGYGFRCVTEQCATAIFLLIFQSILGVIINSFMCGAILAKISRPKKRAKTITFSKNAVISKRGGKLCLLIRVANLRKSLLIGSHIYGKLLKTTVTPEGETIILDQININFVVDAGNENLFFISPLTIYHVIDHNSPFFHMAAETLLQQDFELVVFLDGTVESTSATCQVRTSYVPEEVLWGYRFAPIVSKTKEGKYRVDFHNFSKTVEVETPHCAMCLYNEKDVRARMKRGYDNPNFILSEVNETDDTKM
PROTOCOL_DESCRIPTION: retested modulators of human Kir1.1 channel – cell-based, thallium flux, duplicate, resupplied hits, confirmation (AID 1917)
PROTOCOL_CONDITIONS: ROMK thallium flux, fluorescence ratio; at 10 µM; hits give low values
Screen size: about 3,000 compounds; about 1,600 (53%) were called active. Not shown: some 10% with an inconclusive outcome. The set was probably picked from earlier hits. Not all results are given here.
Give bare numbers.

N#Cc1ccc(Cn2cc(C(=O)c3ccco3)c3ccccc32)cc1 :: 0.0753
CCCCCCCCCCCCn1ccc(=N)cc1 :: 0.0386
Cc1nc2ccccn2c1P(=S)(N1CCCCC1)N1CCCCC1 :: 0.0668
Cc1cc(C=C2C(=O)NC(=O)NC2=O)c(C)n1-c1ccncc1 :: 0.0636
CC1(C)Cc2c(C#N)c(N3CCNCC3)nc(-c3ccco3)c2CS1 :: 0.0568

Required: normalized thallium flux (F/F0 slope), one value per compound below.
1. Clc1ccc2nc3c(c(-c4ccccc4)c2c1)CNCC3
2. COc1ccccc1N=Nc1c(O)[nH]c(=S)[nH]c1=O

a:
[0.0588, 0.0657]
